Molecular target: LC3B (Homo sapiens, UniProt Q9GZQ8)
Assay: Fluorescence Polarization (FP) Assay: displacement of FITC-labeled peptide from GST-LC3B
Type: binding
Settings: Fluorescence Polarization assay; GST-LC3B 180 nM, FITC-labeled peptide 18 nM, 25° C.; read-out: IC50
Where a name gives a salt, the structure may show the parent alone.

compound	IC50
CN(C)CCNC=C1C(=O)CC(c2cc(F)ccc2Cl)CC1=O (stereo not drawn) [Compound 351]	< 3 µM
CN(C)CCNC=C1C(=O)CC(c2c(Cl)ccc(Cl)c2Cl)CC1=O (stereo not drawn) [Compound 397]	< 3 µM
O=C1CC(c2ccc(O)cc2)CC(=O)C1=CO (stereo not drawn) [Compound 443]	15 to 100 µM
O=C1CCCC(=O)C1=CNCCN1CCN(CCO)CC1 [Compound 11]	100 to 1000 µM
CC(=O)N1CCN(CCNC=C2C(=O)CC(c3ccc(C)cc3)CC2=O)CC1 (stereo not drawn) [Compound 225]	< 3 µM
Cc1ccc(C2CC(=O)C(=CNCCN3CCN(C(=O)N4CCOCC4)CC3)C(=O)C2)cc1 (stereo not drawn) [Compound 226]	< 3 µM
Cc1ccc(NC(=O)C2CC(=O)C(=CNCCN(C)C)C(=O)C2)cc1F (stereo not drawn) [Compound 380]	3 to 15 µM
CNCCNC=C1C(=O)CC(c2ccccc2)CC1=O (stereo not drawn) [Compound 164, hydrochloride]	3 to 15 µM
CN(C)C=C1C(=O)CC(c2n[nH]c3ccccc23)CC1=O (stereo not drawn) [Compound 286]	< 3 µM
O=C1CC(c2c(C(F)(F)F)ccc(Cl)c2F)CC(=O)C1=CO (stereo not drawn) [Compound 447]	< 3 µM
C[C@H](NC=C1C(=O)CC(c2ccccc2)CC1=O)C(=O)O (stereo partly drawn) [Compound 121]	15 to 100 µM
O=C1CCC(c2ccc(F)cc2)C(=O)C1=CNCCN1CCN(CCO)CC1 (stereo not drawn) [Compound 100]	15 to 100 µM
O=C1Nc2c(ccc3ccccc23)C(=O)/C1=C\NCCN1CCN(CCO)CC1 [Compound 331]	< 3 µM
O=C1CC(c2ccccc2)CC(=O)C1=CNCCOCCO (stereo not drawn) [Compound 134]	100 to 1000 µM
COCCOCCOc1cccc(C2CC(=O)C(=CNCCN3CCN(CCO)CC3)C(=O)C2)c1 (stereo not drawn) [Compound 34]	< 3 µM
COc1cccc(C2CC(=O)C(=CNCCN(C)C)C(=O)C2)c1 (stereo not drawn) [Compound 337]	< 3 µM
O=C1CC(c2ccccc2)CC(=O)C1=CNCCN1CCN(C(=O)c2ccc(Br)cc2)CC1 (stereo not drawn) [Compound 220]	3 to 15 µM
O=C1Nc2ccc(-c3ccccc3)cc2C(=O)/C1=C/NCCN1CCN(CCO)CC1 [Compound 328]	3 to 15 µM
